melting point reference

Before answering, review these 5 worked examples.
COc1ccc2c(c1)c(C(O)CN1CCN(c3ccccc3OC)CC1)cn2S(=O)(=O)c1ccc(I)cc1 (stereo not shown) [4j] : 101 to 104 °C
O=S(=O)(c1cccc2ccccc12)n1cc(C(O)CN2CCOCC2)c2cc(F)ccc21 (stereo not shown) [4f] : 164.1 to 165.8 °C
COc1ccccc1N1CCN(CC(O)c2cn(S(=O)(=O)c3ccc(I)cc3)c3ccc(F)cc23)CC1 (stereo not shown) [4a] : 94.5 to 96.4 °C
COc1ccc2c(c1)c(C(O)CN1CCOCC1)cn2S(=O)(=O)c1cccc2ccccc12 (stereo not shown) [4m] : 190 to 192 °C
O=S(=O)(c1cccc2ccccc12)n1cc(C(O)CN2CCN(c3ccccn3)CC2)c2cc(F)ccc21 (stereo not shown) [4e] : 112 to 114 °C

Now consider the entry below.
Entry COc1ccc2c(c1)c(C(O)CN1CCOCC1)cn2S(=O)(=O)c1ccc(I)cc1 (stereo not shown) [4k] : reported melting point = ?
120 to 124 °C

====

Property: melting point

In the examples that follow, each entry is paired with its recorded melting point.
COc1ccc2c(c1)c(C(O)CN1CCN(c3ccccc3OC)CC1)cn2S(=O)(=O)c1cccc2ccccc12 (stereo not shown) : 105 to 107 °C
O=S(=O)(c1ccc(I)cc1)n1cc(C(O)CN2CCN(c3ccccn3)CC2)c2cc(F)ccc21 (stereo not shown) : 135 to 137 °C
O=S(=O)(c1cccc2ccccc12)n1cc(C(O)CN2CCN(c3ncccn3)CC2)c2cc(F)ccc21 (stereo not shown) : 100 to 103 °C

Now turn to the next compound.
So what's the measured melting point for this one? COc1ccccc1N1CCN(CC(O)c2cn(S(=O)(=O)c3cccc4ccccc34)c3ccc(F)cc23)CC1 (stereo not shown)
181.1 to 183.2 °C
